Give measured Population Normal (%) for each item. Keep answers brief.
# System: HEK-293T
# ASSAY_OVERVIEW: Multiplex assay against HEK293T
# Format: toxicity, cell-based
# TEST_CONTEXT: human, 48 h, 1 µM, compound concentration 1 uM, replicate 2
Record the value in %, omitting the unit from your answer.

Look up Population Normal (%) for this compound: Nc1nc(-c2ccco2)c2cnn(Cc3ccccc3F)c2n1 95

Tell me the measured Population Normal (%) of Cc1ccc(OCC(O)C(C)NC(C)C)c2c1CCC2.Cl (centres undefined) , please. 98

Can you share its Population Normal (%)? I mean this compound: COc1cc2nc(N3CCN(C(=O)COc4c(OC)cccc4C(C)C)CC3)nc(N)c2cc1OC.Cl.Cl 96

Given the compound COc1cc(Nc2ncc3c(n2)-c2ccc(Cl)cc2C(c2c(F)cccc2OC)=NC3)ccc1C(=O)O [ALISERTIB] , what is its reported Population Normal (%)? 84

Please give the measured Population Normal (%) for this compound: Cl.Cl.OCCOCCN1CCN(C(c2ccccc2)c2ccc(Cl)cc2)CC1 (centres undefined) [HYDROXYZINE HYDROCHLORIDE] 96

Value lookup for Population Normal (%); key = CSc1nc(NC2CCCC2)c([N+](=O)[O-])c(NC2CCCC2)n1 [GS-39783] 93

Param item = OCCCNc1cc(-c2ccnc(Nc3cccc(Cl)c3)n2)ccn1 ; retrieve measured Population Normal (%). 78

I am curious: what Population Normal (%) value has been reported for C=CCN1C[C@H](C(=O)N(CCCN(C)C)C(=O)NCC)C[C@@H]2c3cccc4[nH]cc(c34)C[C@H]21 [CABERGOLINE] ? 96

Need Population Normal (%) of Cn1cc(C(=O)OCC2CCN(CCNS(C)(=O)=O)CC2)c2ccccc21 , thanks. 95

---

Would you kindly list Population Hoechst High Intensity Objects (%) for each of these compounds?
# Tested on: HEK-293T
# ASSAY_OVERVIEW: Multiplex assay against HEK293T
# Format: toxicity, cell-based
# TEST_CONTEXT: human, 48 h, 1 µM, compound concentration 1 uM, replicate 2
Non-standard residues stand in square brackets, D forms with d. Residues, ends and D or L forms follow the SMILES beside them.
Dear colleague, please return just the value in %, with no unit written.

So what does the record say about Population Hoechst High Intensity Objects (%) for CN1CCN2c3ccccc3Cc3ccccc3C2C1.Cl (configuration not stated) [MIANSERIN HYDROCHLORIDE] ? 3

GET /values?readout=Population Hoechst High Intensity Objects (%)&item= CC(C)C[C@@H]1NC(=O)[C@@H](C(C)C)NC(=O)[C@@H]2CCCN2C(=O)[C@@H](CC(=O)O)NC(=O)[C@@H](Cc2c[nH]c3ccccc23)NC1=O [BQ-123] (cyclo(L[dW][dD]P[dV])) 5

For the compound CN(C)C(=O)Cn1cc(-c2ccc(-c3nnc4ccccn34)cc2)cn1 , what Population Hoechst High Intensity Objects (%) is on record? 4

Reported Population Hoechst High Intensity Objects (%), compound CN(C)C/C=C/C(=O)Nc1ccc(C(=O)N2CCCC(Nc3ncc(Cl)c(-c4c[nH]c5ccccc45)n3)C2)cc1 (configuration not stated) : ____ 26

Population Hoechst High Intensity Objects (%) for CSc1nc(NC2CCCC2)c([N+](=O)[O-])c(NC2CCCC2)n1 ? 6

What does the data say about its Population Hoechst High Intensity Objects (%)? Entry: O=C(NCCNCC(O)COc1ccc(O)cc1)N1CCOCC1.O=C(NCCNCC(O)COc1ccc(O)cc1)N1CCOCC1.O=C(O)/C=C/C(=O)O (configuration not stated) [XAMOTEROL FUMARATE] 4

What value of Population Hoechst High Intensity Objects (%) has been recorded for this entry: CN1CCN(c2ccc(Nc3c4ccccc4nc4ccccc34)cc2)CC1.Cl.Cl.O 1
